Test system: 5HT-Transporter (Homo sapiens, UniProt P31645)
Construct: Human platelet membranes (Oceanix Biosciences Corporation, Hanover, Md., USA) were thawed; tissue Oceanix Biosciences Corporation, Hanover, Md., USA; host or cells: human platelet membranes
Sequence (P31645 whole entry): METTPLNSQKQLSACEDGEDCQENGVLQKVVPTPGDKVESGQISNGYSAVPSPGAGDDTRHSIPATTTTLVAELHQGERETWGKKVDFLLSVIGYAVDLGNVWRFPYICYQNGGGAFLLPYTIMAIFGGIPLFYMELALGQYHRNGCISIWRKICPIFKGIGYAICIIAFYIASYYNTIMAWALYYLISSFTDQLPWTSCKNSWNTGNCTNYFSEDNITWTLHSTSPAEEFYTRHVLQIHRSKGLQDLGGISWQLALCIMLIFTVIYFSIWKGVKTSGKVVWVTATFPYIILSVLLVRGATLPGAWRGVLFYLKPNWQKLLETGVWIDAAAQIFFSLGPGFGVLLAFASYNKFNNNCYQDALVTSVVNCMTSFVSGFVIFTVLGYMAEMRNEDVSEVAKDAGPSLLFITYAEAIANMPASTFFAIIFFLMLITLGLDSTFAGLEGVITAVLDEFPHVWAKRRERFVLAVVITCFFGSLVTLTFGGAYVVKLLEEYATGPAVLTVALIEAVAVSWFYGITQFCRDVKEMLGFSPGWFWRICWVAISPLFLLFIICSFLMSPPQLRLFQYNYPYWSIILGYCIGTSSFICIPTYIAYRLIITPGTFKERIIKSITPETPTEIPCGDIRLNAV
Assay procedure: Binding experiment for the 5HT-transporter ([3H]paroxetine, human platelet membranes)
Test conditions: [3H]paroxetine 0.5 nM, read-out: h-5HTT pIC50 (converted)
Assay readout: IC50 (µM)
Answers are plain numbers, in µM.

Compound	IC50 / µM
C/C(=C\c1ccccc1)CN1CCC(Nc2nccn(CCN3CCCCC3)c2=O)CC1 [2-4]	2.51

For each of the items listed, what is its IC50?
1. C/C(=C\c1ccccc1)CN1CCC(Nc2nccn(CC(=O)NCC(c3ccccc3)c3ccccc3)c2=O)CC1
2. COC(=O)CN(C)C(=O)Cn1ccnc(NC2CCN(C/C(C)=C/c3ccccc3)CC2)c1=O
3. C/C(=C\c1ccccc1)CN1CCC(Nc2nccn(CC(=O)N(CCCn3ccnc3)Cc3ccc(F)cc3)c2=O)CC1
4. C/C(=C\c1ccccc1)CN1CCC(N(C)c2nccn(CC3CCCCO3)c2=O)CC1 (stereo not drawn)
5. C/C(=C\c1ccccc1)CN1CCC(Nc2nccn(CC(=O)C(C)(C)C)c2=O)CC1 [7-9]
6. C/C(=C\c1ccccc1)CN1CCC(N(C)c2nccn(CCN3CCCCC3)c2=O)CC1

Result string:
0.794
2.51
2
3.16
5.01
5.01

Parameters: items (list). Returns: IC50 for each item.
1. CCCNC(=O)NCc1ccc(Cn2ccnc(NC3CCN(C/C(C)=C/c4ccccc4)CC3)c2=O)cc1
2. C/C(=C\c1ccccc1)CN1CCC(Nc2nccn(CC(=O)N3CCN(Cc4ccccc4)CC3)c2=O)CC1
3. CCCC(=O)N(CCCn1ccnc(NC2CCN(C/C(C)=C/c3ccccc3)CC2)c1=O)Cc1ccccc1
4. C/C(=C\c1ccccc1)CN1CCC(Nc2nccn(Cc3cccc(NCCN(C)C)c3)c2=O)CC1
5. C/C(=C\c1ccccc1)CN1CCC(Nc2nccn(-c3cccc(NCCc4ccccc4)c3)c2=O)CC1
6. C/C(=C\c1ccccc1)CN1CCC(Nc2nccn(CCCN(Cc3ccccc3)C(=O)Cc3ccccc3)c2=O)CC1
7. COC(=O)CN(C)Cc1ccc(-n2ccnc(NC3CCN(C/C(C)=C/c4ccccc4)CC3)c2=O)cc1

Result string:
1. 0.794
2. 0.794
3. 1.26
4. 0.2
5. 0.398
6. 0.794
7. 1

List the reported IC50 of each compound below.
1. C/C(=C\c1ccccc1)CN1CCC(Nc2nccn(CC(=O)NCCc3ccccc3)c2=O)CC1
2. C/C(=C\c1ccccc1)CN1CCC(Nc2nccn(CC(=O)N(CCN3CCCC3)CC3CCCCC3)c2=O)CC1
3. C/C(=C\c1ccccc1)CN1CCC(Nc2nccn(-c3ccc(CN4CCCCC4)cc3)c2=O)CC1
4. C/C(=C\c1ccccc1)CN1CCN(c2nccn(Cc3ccc4ccccc4c3)c2=O)CC1
5. CC(=O)NCCNC(=O)Cn1ccnc(NC2CCN(C/C(C)=C/c3ccccc3)CC2)c1=O

Result string:
3.16
0.501
0.251
1
3.98

---

Test system: 5HT-Transporter (Homo sapiens)
Construct: Human platelet membranes (Oceanix Biosciences Corporation, Hanover, Md., USA) were thawed; tissue Oceanix Biosciences Corporation, Hanover, Md., USA; host or cells: human platelet membranes
Assay procedure: Binding experiment for the 5HT-transporter ([3H]paroxetine, human platelet membranes)
Test conditions: [3H]paroxetine 0.5 nM, read-out: h-5HTT pIC50 (converted)
Assign IC50 to each entry below.
Give bare numbers, in nM.

Compound	IC50 (nM)
C/C(=C\c1ccccc1)CN1CCC(Nc2nccn(-c3cccc(NS(=O)(=O)Cc4ccccc4)c3)c2=O)CC1	316
C/C(=C\c1ccccc1)CN1CCC(Nc2nccn(Cc3ccc(CNS(=O)(=O)c4ccc(F)cc4)cc3)c2=O)CC1	316
CSc1ccc(-n2ccnc(NC3CCN(C/C(C)=C/c4ccccc4)CC3)c2=O)cc1	158
C/C(=C\c1ccccc1)CN1CCC(Nc2nccn(-c3ccc(-c4ccccc4)cc3)c2=O)CC1	398
C/C(=C\c1ccccc1)CN1CCC(Nc2nccn(Cc3csc(C)n3)c2=O)CC1 [6-7]	2000

Each compound below has a recorded value; state its IC50.
1. C/C(=C\c1ccccc1)CN1CCC(Nc2nccn(Cc3ccccc3C(F)(F)F)c2=O)CC1
2. C/C(=C\c1ccccc1)CN1CCC(Nc2nccn(CC(=O)NCCCc3ccccc3)c2=O)CC1
3. CC(=O)Nc1ccc(S(=O)(=O)NCc2ccc(Cn3ccnc(NC4CCN(C/C(C)=C/c5ccccc5)CC4)c3=O)cc2)cc1

Result string:
1. 398
2. 794
3. 501

# credit: patent US20090111801A1
